pIC50: −log10 of the molar value.
Endpoint summary: pIC50, system: 5-hydroxytryptamine receptor 4 (Cavia porcellus), multiple sources combined.
Sequence (O70528 whole entry): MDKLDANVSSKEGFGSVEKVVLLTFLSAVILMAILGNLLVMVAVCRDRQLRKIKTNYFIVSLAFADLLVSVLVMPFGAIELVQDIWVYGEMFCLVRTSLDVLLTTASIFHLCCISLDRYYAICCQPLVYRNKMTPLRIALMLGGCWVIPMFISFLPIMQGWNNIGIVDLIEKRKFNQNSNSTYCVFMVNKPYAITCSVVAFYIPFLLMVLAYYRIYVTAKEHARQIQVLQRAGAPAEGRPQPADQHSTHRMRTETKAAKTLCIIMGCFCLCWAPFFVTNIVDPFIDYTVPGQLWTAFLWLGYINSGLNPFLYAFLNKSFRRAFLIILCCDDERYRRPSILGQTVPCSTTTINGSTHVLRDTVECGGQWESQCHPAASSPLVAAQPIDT
Observation Type: pIC50

INSERT INTO assay_data (molecule, observation_type, bound_sign, numeric_readout) VALUES
  ('CC(C)n1c(=O)n(C(=O)NCCCN2CCN(C)CC2)c2ccccc21', 'pIC50', '<', 6.00),
  ('CC(C)n1c(=O)n(C(=O)NCCN2CCN(C)CC2)c2cc(F)c([N+](=O)[O-])cc21', 'pIC50', '<', 6.00),
  ('COc1cc(N)c(Cl)cc1C(=O)NC1CCN(CC2CCN(CCCN)CC2)CC1', 'pIC50', '=', 7.87),
  ('Nn1c(CCCCN2CCN(c3ccc4ccccc4n3)CC2)nc2c(c1=O)CCCC2', 'pIC50', '<', 6.00),
  ('COc1cc(N)c(Cl)cc1C(=O)NC1CCN(CC2CCN(C(=O)C(C)(C)N)CC2)CC1', 'pIC50', '=', 8.59),
  ('CN1CCN(CCNC(=O)n2c(=O)[nH]c3ccccc32)CC1', 'pIC50', '=', 6.00),
  ('COc1cc(N)c(Cl)cc1C(=O)NC1CCN(CC2CCN(CCN)CC2)CC1', 'pIC50', '=', 7.84),
  ('COc1cc(N)c(Cl)cc1C(=O)NC1CCN(C(=O)C2CCN(C(=O)CCCN)CC2)CC1', 'pIC50', '=', 6.37),
  ('CN1CCN(CCNC(=O)n2c(=O)n(CCc3ccccc3)c3ccccc32)CC1', 'pIC50', '<', 6.00),
  ('C=CCn1c(=O)n(C(=O)NCCN2CCN(C)CC2)c2ccccc21', 'pIC50', '<', 6.00),
  ('CCCCN1CCC(COC(=O)c2cc(Cl)c(N)c3c2OCCO3)CC1', 'pIC50', '=', 10.10),
  ('COc1cc(N)c(Cl)cc1C(=O)NC1CCN(CC2CCN(CC(C)CN)CC2)CC1 (stereo unspecified)', 'pIC50', '=', 7.84),
  ('CC(C)n1c(=O)n(C(=O)NCCN2CCN(C)CC2)c2cc(Cl)ccc21', 'pIC50', '<', 6.00),
  ('COc1cc(N)c(Cl)cc1C(=O)NC1CCN(CC2CCN(C(=O)CCCN)CC2)CC1', 'pIC50', '=', 8.40),
  ('COc1cc(N)c(Cl)cc1C(=O)NC1CCN(CC2CCN(C(=O)C(C)CN)CC2)CC1 (stereo unspecified)', 'pIC50', '=', 8.29),
  ('CCCC(N)C(=O)N1CCC(CN2CCC(NC(=O)c3cc(Cl)c(N)cc3OC)CC2)CC1 (stereo unspecified)', 'pIC50', '=', 8.59);
